The origin of these recorded values is patent US10981932B2.

Tested on: SUDHL10
Procedure text: Induction of caspase-3/7 activity (Caspase-Glo 3/7), SUDHL10
Type: cell-based
Recorded conditions: Homo sapiens, SU-DHL10, 3 h, caspase-3/7 induction, SUDHL10 cells, 3 h treatment; median
Where a name gives a salt, the structure may show the parent alone.
Reported property: EC50 (µM)

Sample records with EC50:
Compound | Unit string | EC50
Cc1c2c(nn1C)COCCCCn1c(C(=O)O)c(CCCOc3cccc4cc(Cl)ccc34)c3cccc-2c31 (single isomer, unassigned) [Example 296] | µM | 18.7
Cc1ccc2c(CCCOc3cccc4ccccc34)c(C(=O)O)n3c2c1-c1c(nn(C)c1C)CN(C)CCC3 (racemic) [Example 072] | µM | 4.91

a: CN(C)S(=O)(=O)N1CCN(c2ccc(OCc3nn(C)c4c3-c3cccc5c(CCCOc6cccc7ccccc67)c(C(=O)O)n(c35)CCCN(Cc3ccccc3)C4)cc2)CC1 (racemic) [Example 004]
b: Cn1nc(COc2ccc(N3CCN(CCC(C)(C)O)CC3)cc2)c2c1COCCCCn1c(C(=O)O)c(CCCOc3cccc4ccccc34)c3cccc-2c31 (racemic) [Example 1-121, Ammonium Salt]
[Q] Hi there! Just curious which has the higher EC50 between a and b . # respond with the chosen item's label
[A] a
(a: 25.8 µM, b: 8.04 µM)

* * *

Test system: SUDHL10
Procedure text: Induction of caspase-3/7 activity (Caspase-Glo 3/7), SUDHL10
Format: cell-based
Recorded conditions: Homo sapiens, SU-DHL10, 3 h, caspase-3/7 induction, SUDHL10 cells, 3 h treatment; median
Reported property: EC50

Molecule | EC50
Cn1nc(COc2ccc(N3CCN(CC(=O)O)CC3)cc2)c2c1COCCCCn1c(C(=O)O)c(CCCOc3cccc4ccccc34)c3cccc-2c31 (racemic) | > 33 µM
CC(C)OCc1nn(C)c2c1-c1cccc3c(CCCOc4cccc5ccccc45)c(C(=O)O)n(c13)C/C=C\COC2 (racemic) | > 33 µM

Here is the next item to consider.
[Q] Give the reported value of EC50 for this record: Cc1nn(C)c2c1-c1cccc3c(CCCOc4cccc5cc(Cl)ccc45)c(C(=O)O)n(c13)CCCCOC2 (racemic) [Example 040]
[A] > 33 µM

* * *

Listed next: entries and their corresponding IC50.
Test system: SUDHL5
Procedure text: Induction of cytotoxicity (CellTiter-Glo, 5 h), SUDHL5
Recorded conditions: read-out: Cytotox SUDHL5 [M] (median); SUDHL5 cells, cytotoxicity induction, CellTiter-Glo, 5 h incubation, median

Sample records with IC50:
Compound | System tested | IC50
COc1c2c(nn1C)COCCCCn1c(C(=O)O)c(CCCOc3cccc4ccccc34)c3cccc-2c31 (single isomer, unassigned) [Example 209] | SUDHL5 | > 3.3e-05 M
Cn1nc(COc2cncnc2)c2c1COCCCCn1c(C(=O)O)c(CCCOc3cccc4ccccc34)c3cccc-2c31 (single isomer, unassigned) [Example 211] | SUDHL5 | > 3.3e-05 M
Cc1nn(C)c2c1-c1cccc3c(CCCOc4cccc5cc(Cl)ccc45)c(C(=O)O)n(c13)CCCCOC2 (single isomer, unassigned; enantiomer 2) [Example 042] | SUDHL5 | > 3.3e-05 M

Here is the next item to consider.
[Q] Give the reported value of IC50 for this record: O=C(O)c1c(CCCOc2cccc3ccccc23)c2cccc3c2n1CCCCOCc1nn2c(c1-3)OCCC2 (single isomer, unassigned) [Example 249]
[A] > 3.3e-05 M
